The measured values listed here are drawn from ChEMBL document CHEMBL1136942.

assay details: Metabolic stability in mouse liver microsomes assessed as half life
Format: ADME, Microsome
measurement type: half-life

Qu. Name the reported half-life value associated with the molecule `Cc1c(Nc2c(C#N)cncc2-c2ccc(OCCN3CCN(C)CC3)cc2)ccc2[nH]ccc12`
Ans. < 15 min

* * *

assayed system: Protein kinase C beta type (Homo sapiens, UniProt P05771)
Sequence (P05771 whole entry): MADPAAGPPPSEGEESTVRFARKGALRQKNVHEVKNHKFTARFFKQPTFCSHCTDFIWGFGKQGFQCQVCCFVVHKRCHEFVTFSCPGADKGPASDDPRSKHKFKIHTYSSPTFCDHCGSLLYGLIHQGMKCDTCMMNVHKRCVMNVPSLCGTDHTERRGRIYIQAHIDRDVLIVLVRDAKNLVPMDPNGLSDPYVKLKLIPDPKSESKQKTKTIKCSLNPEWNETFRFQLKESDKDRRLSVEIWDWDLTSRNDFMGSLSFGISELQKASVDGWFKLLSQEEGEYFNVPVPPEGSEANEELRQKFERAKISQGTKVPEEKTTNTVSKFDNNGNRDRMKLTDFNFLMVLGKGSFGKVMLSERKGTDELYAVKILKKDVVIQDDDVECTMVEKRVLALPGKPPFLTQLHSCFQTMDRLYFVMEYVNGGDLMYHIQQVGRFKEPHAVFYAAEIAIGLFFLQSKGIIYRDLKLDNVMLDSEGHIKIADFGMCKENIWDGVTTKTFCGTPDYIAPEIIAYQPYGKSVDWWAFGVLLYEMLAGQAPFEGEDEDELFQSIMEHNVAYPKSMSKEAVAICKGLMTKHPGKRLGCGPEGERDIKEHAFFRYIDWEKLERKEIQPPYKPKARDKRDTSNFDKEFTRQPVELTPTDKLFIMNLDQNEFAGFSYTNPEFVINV
measurement type: pIC50
pIC50 (log units): -log10 of the concentration in mol/L.

Qu. // map `Cc1c(Nc2c(C#N)cncc2-c2ccc(OCCN3CCN(C)CC3)cc2)ccc2[nH]ccc12` to recorded pIC50 (system: Protein kinase C beta type (Homo sapiens, UniProt P05771))
Ans. 4.66

* * *

assayed system: Protein kinase C delta type (Homo sapiens)
assay details: Inhibition of human PKCdelta by IMAP assay
measurement type: pIC50
Remember the convention: pIC50 equals -log10 of concentration in molar.

Look over these answered cases.
- smiles notation: "Cc1c(Nc2c(C#N)cncc2-c2ccccc2)ccc2[nH]ccc12"
  pIC50: 7.20
- smiles notation: "Cc1c(Nc2c(C#N)cncc2-c2ccc(OCCNCCN(C)C)cc2)ccc2[nH]ccc12"
  pIC50: 7.74
- smiles notation: "Cc1c(Nc2c(C#N)cncc2-c2ccc(OCCN3CCC(N4CCCC4)CC3)cc2)ccc2[nH]ccc12"
  pIC50: 7.52
- smiles notation: "COc1ccccc1-c1cncc(C#N)c1Nc1ccc2[nH]ccc2c1C"
  pIC50: 6.47
- smiles notation: "COc1ccc(-c2cncc(C#N)c2Nc2ccc3[nH]ccc3c2C)cc1"
  pIC50: 7.07

Qu. Which pIC50 value belongs to `COc1ccc(-c2cncc(C#N)c2Nc2ccc3[nH]ccc3c2C)cc1OC` ?
Ans. 7.09

Qu. Data request, read-out pIC50, for `COc1ccc(-c2cncc(C#N)c2Nc2ccc3[nH]ccc3c2F)cc1OC`
Ans. 7.16

Qu. Return reported pIC50; argument: `COc1ccc(-c2cncc(C#N)c2Nc2ccc3[nH]ccc3c2OC)cc1OC`
Ans. 6.46

* * *

assay details: Solubility at pH 7.4
Assay type: physicochemical
measurement setup: buffer
measurement type: solubility (µg/mL)
Give the value in µg/mL but do not write µg/mL after it.

Qu. Returns the measured solubility for the input compound. Input: `Cc1c(Nc2c(C#N)cncc2-c2ccc(OCCN3CCN(C)CC3)cc2)ccc2[nH]ccc12`
Ans. 67

* * *

assayed system: Rho-associated protein kinase 1 (Homo sapiens)
Sequence (Q13464 whole entry): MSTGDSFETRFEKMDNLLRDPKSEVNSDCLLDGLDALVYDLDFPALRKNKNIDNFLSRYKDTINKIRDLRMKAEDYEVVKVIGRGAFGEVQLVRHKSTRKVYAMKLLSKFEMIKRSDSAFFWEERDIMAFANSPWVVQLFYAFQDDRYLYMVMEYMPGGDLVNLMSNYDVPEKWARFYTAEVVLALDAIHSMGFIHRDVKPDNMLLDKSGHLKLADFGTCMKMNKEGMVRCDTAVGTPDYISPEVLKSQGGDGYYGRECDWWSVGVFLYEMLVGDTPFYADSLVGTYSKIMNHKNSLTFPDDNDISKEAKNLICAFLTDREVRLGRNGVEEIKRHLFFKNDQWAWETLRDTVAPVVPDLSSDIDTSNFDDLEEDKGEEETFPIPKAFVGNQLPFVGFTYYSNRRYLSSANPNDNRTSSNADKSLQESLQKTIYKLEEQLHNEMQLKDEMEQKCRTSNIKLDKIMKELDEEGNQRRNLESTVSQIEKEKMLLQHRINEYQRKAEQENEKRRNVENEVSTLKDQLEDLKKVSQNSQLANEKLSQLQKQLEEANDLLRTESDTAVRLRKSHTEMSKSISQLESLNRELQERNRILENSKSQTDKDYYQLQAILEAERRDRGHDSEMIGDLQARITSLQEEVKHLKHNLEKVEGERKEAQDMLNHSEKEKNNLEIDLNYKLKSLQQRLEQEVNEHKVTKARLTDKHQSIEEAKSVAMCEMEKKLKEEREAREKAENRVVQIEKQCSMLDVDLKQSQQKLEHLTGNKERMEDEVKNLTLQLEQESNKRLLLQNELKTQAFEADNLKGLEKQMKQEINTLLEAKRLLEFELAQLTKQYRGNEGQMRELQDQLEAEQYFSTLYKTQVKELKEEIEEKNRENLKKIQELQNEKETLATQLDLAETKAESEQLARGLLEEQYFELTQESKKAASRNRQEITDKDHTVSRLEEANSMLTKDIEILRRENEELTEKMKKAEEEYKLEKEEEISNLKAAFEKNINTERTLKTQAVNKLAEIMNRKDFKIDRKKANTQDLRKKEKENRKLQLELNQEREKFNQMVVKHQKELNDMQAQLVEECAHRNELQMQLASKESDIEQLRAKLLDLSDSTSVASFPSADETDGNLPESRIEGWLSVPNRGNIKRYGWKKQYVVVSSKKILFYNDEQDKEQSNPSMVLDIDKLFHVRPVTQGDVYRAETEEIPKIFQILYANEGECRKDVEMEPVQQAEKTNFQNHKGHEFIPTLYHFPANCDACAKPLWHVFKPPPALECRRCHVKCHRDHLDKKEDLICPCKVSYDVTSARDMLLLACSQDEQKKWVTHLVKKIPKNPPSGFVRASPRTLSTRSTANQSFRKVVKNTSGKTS
pIC50: −log10 of the molar value.
measurement type: pIC50

Qu. Given the entry `Cc1c(Nc2c(C#N)cncc2-c2ccc(OCCN3CCN(C)CC3)cc2)ccc2[nH]ccc12` , what pIC50 was observed with Rho-associated protein kinase 1 (Homo sapiens)?
Ans. < 5.00

* * *

assay details: Membrane permeability by PAMPA
Format: ADME
measurement setup: read-out: permeability
measurement type: Papp (×10⁻⁶ cm/s)
Form entry: value (×10⁻⁶ cm/s) — number only.

Qu. Item under review: `Cc1c(Nc2c(C#N)cncc2-c2ccc(OCCN3CCN(C)CC3)cc2)ccc2[nH]ccc12` . Reported Papp?
Ans. 0.28

* * *

assay details: Metabolic stability in human liver microsomes assessed as half life
Format: ADME, Microsome
measurement type: half-life

Qu. Requested field: half-life. Item: `Cc1c(Nc2c(C#N)cncc2-c2ccc(OCCN3CCN(C)CC3)cc2)ccc2[nH]ccc12`
Ans. < 15 min

* * *

Catalogue of pIC50 readings, one per entry.
assayed system: Protein kinase C theta type (Homo sapiens)
Sequence (Q04759 whole entry): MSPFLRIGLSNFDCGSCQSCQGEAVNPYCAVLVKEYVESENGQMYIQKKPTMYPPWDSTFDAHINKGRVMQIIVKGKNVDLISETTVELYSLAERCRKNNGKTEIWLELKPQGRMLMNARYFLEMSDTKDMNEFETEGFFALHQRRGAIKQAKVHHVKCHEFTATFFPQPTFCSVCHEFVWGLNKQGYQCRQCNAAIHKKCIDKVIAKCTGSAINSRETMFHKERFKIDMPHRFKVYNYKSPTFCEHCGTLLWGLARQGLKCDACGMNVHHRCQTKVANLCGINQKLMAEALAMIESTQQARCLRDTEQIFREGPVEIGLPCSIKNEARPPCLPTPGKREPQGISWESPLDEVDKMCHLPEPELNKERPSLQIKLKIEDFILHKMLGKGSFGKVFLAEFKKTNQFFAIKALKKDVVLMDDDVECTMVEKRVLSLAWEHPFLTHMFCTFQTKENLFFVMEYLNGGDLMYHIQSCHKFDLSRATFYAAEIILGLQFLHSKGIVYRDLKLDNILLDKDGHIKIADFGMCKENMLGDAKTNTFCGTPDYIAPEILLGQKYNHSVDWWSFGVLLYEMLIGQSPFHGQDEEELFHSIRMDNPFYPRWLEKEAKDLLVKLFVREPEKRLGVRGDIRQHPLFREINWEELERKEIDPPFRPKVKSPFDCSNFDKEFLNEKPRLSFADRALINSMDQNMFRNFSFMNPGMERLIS
# pIC50 = -log10(concentration in molar units)

- smiles notation: "Cc1c(Nc2c(C#N)cncc2-c2ccc(OCCNCCN(C)C)cc2)ccc2[nH]ccc12"
  assayed system: "Protein kinase C theta type (Homo sapiens)"
  pIC50: 8.23

Qu. Returns the measured pIC50 for the input compound. Input: `CCc1c(Nc2c(C#N)cncc2-c2ccc(OC)c(OC)c2)ccc2[nH]ccc12`
Ans. 7.26

Qu. Tell me the measured pIC50 of `COc1ccc(-c2cncc(C#N)c2Nc2ccc3c(ccn3C)c2C)cc1OC` , please.
Ans. 6.59

Qu. Report pIC50 for `Cc1c(Nc2c(C#N)cncc2-c2ccc(OCCN3CCCC3)cc2)ccc2[nH]ccc12` please.
Ans. 8.35

* * *

assay details: Metabolic stability in monkey liver microsomes assessed as half life
Assay type: ADME, Macaca mulatta, Microsome
measurement setup: rhesus monkey
measurement type: half-life

Qu. Tell me the measured half-life of `Cc1c(Nc2c(C#N)cncc2-c2ccc(OCCN3CCN(C)CC3)cc2)ccc2[nH]ccc12` , please.
Ans. < 15 min

* * *

assayed system: Protein kinase C delta type (Homo sapiens, UniProt Q05655)
Sequence (Q05655 whole entry): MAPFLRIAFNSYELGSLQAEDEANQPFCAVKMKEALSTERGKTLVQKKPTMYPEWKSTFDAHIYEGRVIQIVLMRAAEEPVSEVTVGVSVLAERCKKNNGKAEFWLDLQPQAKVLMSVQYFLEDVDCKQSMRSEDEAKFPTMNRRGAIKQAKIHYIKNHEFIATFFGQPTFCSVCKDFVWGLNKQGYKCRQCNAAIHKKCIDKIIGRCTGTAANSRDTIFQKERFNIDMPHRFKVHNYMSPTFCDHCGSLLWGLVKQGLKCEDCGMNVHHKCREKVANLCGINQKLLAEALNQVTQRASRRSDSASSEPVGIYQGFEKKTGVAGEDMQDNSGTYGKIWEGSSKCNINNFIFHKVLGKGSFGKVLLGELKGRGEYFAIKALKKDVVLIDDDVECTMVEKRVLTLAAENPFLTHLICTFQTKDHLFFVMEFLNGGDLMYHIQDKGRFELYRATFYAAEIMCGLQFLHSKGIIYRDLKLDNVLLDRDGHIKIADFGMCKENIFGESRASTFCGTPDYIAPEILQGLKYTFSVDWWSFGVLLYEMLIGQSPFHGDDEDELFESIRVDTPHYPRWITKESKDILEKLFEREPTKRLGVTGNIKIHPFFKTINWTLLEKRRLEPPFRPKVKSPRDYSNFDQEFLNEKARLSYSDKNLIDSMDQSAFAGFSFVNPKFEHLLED
assay details: Inhibition of human PKCdelta by IMAP assay
Param label: returns Criterion met when IC50 < 100 nM, returns Criterion not met otherwise, including exact equality.

- smiles notation: "Cc1c(Nc2c(C#N)cncc2-c2ccc(OCCN3CCCC3)cc2)ccc2[nH]ccc12"
  classification: "Criterion met"
- smiles notation: "Cc1cc2[nH]ccc2cc1Nc1c(C#N)cncc1-c1ccc(OCCN2CCN(C)CC2)cc1"
  classification: "Criterion not met"
- smiles notation: "CCc1c(Nc2c(C#N)cncc2-c2ccc(OC)c(OC)c2)ccc2[nH]ccc12"
  classification: "Criterion not met"
- smiles notation: "Cc1c(Nc2c(C#N)cncc2-c2ccc(OCCCN3CCN(C)CC3)cc2)ccc2[nH]ccc12"
  classification: "Criterion not met"
- smiles notation: "Cc1c(Nc2c(C#N)cncc2-c2ccc(OCCN3CCN(C)CC3)cc2)ccc2[nH]ccc12"
  classification: "Criterion met"
- smiles notation: "CN1CCN(CCOc2ccc(-c3cncc(C#N)c3Nc3ccc4[nH]ccc4c3)cc2)CC1"
  classification: "Criterion not met"
- smiles notation: "Cc1c(Nc2c(C#N)cncc2-c2ccc(OCCN3CCN(CCO)CC3)cc2)ccc2[nH]ccc12"
  classification: "Criterion met"
- smiles notation: "Cc1c(Nc2c(C#N)cncc2-c2ccc(OCCN3CCOCC3)cc2)ccc2[nH]ccc12"
  classification: "Criterion not met"
- smiles notation: "COc1ccc(-c2cncc(C#N)c2Nc2cc3cc[nH]c3cc2C)cc1OC"
  classification: "Criterion not met"
- smiles notation: "COc1ccc(-c2cncc(C#N)c2Nc2ccc3c(ccn3C)c2C)cc1OC"
  classification: "Criterion not met"

Qu. Input `CN1CCN(CCOc2ccc(-c3cncc(C#N)c3Nc3cccc4[nH]ccc34)cc2)CC1` ; condition: IC50 strictly below 100 nM. Does it hold?
Ans. Criterion met

Qu. Quick check: does `COc1cccc(-c2cncc(C#N)c2Nc2ccc3[nH]ccc3c2C)c1` have IC50 under 100 nM?
Ans. Criterion not met

Qu. Bench note: check whether `COc1ccc(-c2cncc(C#N)c2Nc2cccc3[nH]ccc23)cc1OC` shows IC50 below 100 nM
Ans. Criterion met

Qu. Dear reviewer, please state whether `COc1ccc(-c2cncc(C#N)c2N(C)c2ccc3[nH]ccc3c2)cc1OC` has IC50 strictly beneath 100 nM.
Ans. Criterion not met

* * *

Each entry below carries its measured pIC50, system: Protein kinase C theta type (Homo sapiens).
To interpret pIC50, take it as minus log10 of a concentration measured in moles per litre.

- smiles notation: "COc1ccc(-c2cncc(C#N)c2-c2ccc3[nH]ccc3c2)cc1OC"
  pIC50: 5.77
- smiles notation: "COc1ccc(-c2cncc(C#N)c2Nc2ccc3[nH]ccc3c2F)cc1OC"
  pIC50: 8.28
- smiles notation: "COc1ccc(-c2cncc(C#N)c2Nc2ccc3[nH]ccc3c2C)cc1OC"
  pIC50: 8.20
- smiles notation: "COc1ccc(-c2cncc(C#N)c2Oc2ccc3[nH]ccc3c2)cc1OC"
  pIC50: 5.77

The record that follows has no pIC50 shown yet.
Qu. Hello, I am looking for reported pIC50 with Protein kinase C theta type (Homo sapiens) for `Cc1c(Nc2c(C#N)cncc2-c2ccc(OCCN3CCN(C)CC3)cc2)ccc2[nH]ccc12` . Could you help?
Ans. 8.13
